Reference for the values: patent US20210130436A1

measuredOn: T1, human PD-L1 (human, UniProt Q9NZQ7 19-290)
T1 construct: whole, on cells; CHO cells stably expressing huPD-L1; also called huPD-L1
experimentDescription: flow cytometry, MFI on CHO/huPD-L1 cells divided by MFI on Jurkat cells (CD28), 33.3 nM
# strict inequality: Ratio of PDL1:CD28 < 20 ratio yields MET, everything else yields NOT MET

INSERT INTO assay_data (binder, answerlabel) VALUES
  ('variant CD80 IgV-Fc (inert) H18V/E35D/M47V/V68M/A71G/D90G (Fc fusion, not shown: inert human IgG1 Fc) VIHVTKEVKEVATLSCGVNVSVEELAQTRIYWQKDKKMVLTMMSGDVNIWPEYKNRTIFDITNNLSIMILGLRPSDEGTYECVVLKYEKGAFKREHLAEVTLSVKAD', 'NOT MET'),
  ('variant CD80 IgV-Fc (inert) H18V/A26G/E35D/M47V/V68M/A71G/D90G (Fc fusion, not shown: inert human IgG1 Fc) VIHVTKEVKEVATLSCGVNVSVEELGQTRIYWQKDKKMVLTMMSGDVNIWPEYKNRTIFDITNNLSIMILGLRPSDEGTYECVVLKYEKGAFKREHLAEVTLSVKAD', 'MET'),
  ('variant CD80 IgV-Fc (inert) H18Y/E35D/M47V/V68L/A71G/D90G (Fc fusion, not shown: inert human IgG1 Fc) VIHVTKEVKEVATLSCGYNVSVEELAQTRIYWQKDKKMVLTMMSGDVNIWPEYKNRTIFDITNNLSILILGLRPSDEGTYECVVLKYEKGAFKREHLAEVTLSVKAD', 'MET'),
  ('variant CD80 IgV-Fc (inert) H18C/A26P/E35D/M47L/V68M/A71G (Fc fusion, not shown: inert human IgG1 Fc) VIHVTKEVKEVATLSCGCNVSVEELPQTRIYWQKDKKMVLTMMSGDLNIWPEYKNRTIFDITNNLSIMILGLRPSDEGTYECVVLKYEKDAFKREHLAEVTLSVKAD', 'NOT MET'),
  ('variant CD80 IgV-Fc (inert) H18I/A26P/E35D/M47V/V68M/A71G (Fc fusion, not shown: inert human IgG1 Fc) VIHVTKEVKEVATLSCGINVSVEELPQTRIYWQKDKKMVLTMMSGDVNIWPEYKNRTIFDITNNLSIMILGLRPSDEGTYECVVLKYEKDAFKREHLAEVTLSVKAD', 'NOT MET'),
  ('variant CD80 IgV-Fc (inert) H18V/A26K/E35D/M47L/V68M/A71G (Fc fusion, not shown: inert human IgG1 Fc) VIHVTKEVKEVATLSCGVNVSVEELKQTRIYWQKDKKMVLTMMSGDLNIWPEYKNRTIFDITNNLSIMILGLRPSDEGTYECVVLKYEKDAFKREHLAEVTLSVKAD', 'MET'),
  ('variant CD80 IgV-Fc (inert) H18L/E35D/M47V/V68M/A71G/D90G (Fc fusion, not shown: inert human IgG1 Fc) VIHVTKEVKEVATLSCGLNVSVEELAQTRIYWQKDKKMVLTMMSGDVNIWPEYKNRTIFDITNNLSIMILGLRPSDEGTYECVVLKYEKGAFKREHLAEVTLSVKAD', 'MET'),
  ('variant CD80 IgV-Fc (inert) H18V/A26P/E35D/M47L/V68M/A71G (Fc fusion, not shown: inert human IgG1 Fc) VIHVTKEVKEVATLSCGVNVSVEELPQTRIYWQKDKKMVLTMMSGDLNIWPEYKNRTIFDITNNLSIMILGLRPSDEGTYECVVLKYEKDAFKREHLAEVTLSVKAD', 'NOT MET');
